Listed binders paired with reported LogEC50
- EXPERIMENTAL_TARGET: T1, human chemokine (C-C motif) receptor 8 (CCR8) protein (human, UniProt P51685 1-355)
- T1 construct: whole, on cells; also called human CCR8
- ASSAY_EXPLANATION: cell binding, CCR8-expressing U2OS cells, curve fit
- Set-up: unit not given here

- BINDER: "88-H1L2 (antibody, V domains shown, Humanized 88D2C6) VH: EVQLVESGGGLVQPGGSLKLSCAASGFTFNPNAMNWVRQASGKGLEWVGRIRSKSNNYATYYADSVKDRFTISRDDSKNTAYLQMNSLKTEDTAVYYCTRGKDDGYRHYAMDYWGQGTTVTVSS VL: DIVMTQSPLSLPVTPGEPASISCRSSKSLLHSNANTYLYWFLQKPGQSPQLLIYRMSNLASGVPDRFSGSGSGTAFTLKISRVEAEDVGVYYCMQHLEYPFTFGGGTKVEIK"
  LogEC50: -0.678
- BINDER: "88-H2L3 (antibody, V domains shown, Humanized 88D2C6) VH: EVQLVESGGGLVQPGGSLKLSCAASGFTFNPNAMNWVRQASGKGLEWVGRIRSKSNNYATYYADSVKDRFTISRDDSKNTAYLQMNNLKTEDTAVYYCVRGKDDGYRHYAMDYWGQGTTVTVSS VL: DIVMTQAPLSLPVTPGEPVSISCRSSKSLLHSNANTYLYWFLQKPGQSPQLLIYRMSNLASGVPDRFSGSGSGTAFTLKISRVEAEDVGVYYCMQHLEYPFTFGGGTKLEIK"
  LogEC50: -0.512
- BINDER: "88-xi (antibody, V domains shown, also called 88D2C6; chimeric 88D2C6) VH: EVQLVETGGGLVQPKGSLKLSCAASGFTFNPNAMNWVRQAPGKGLEWVARIRSKSNNYATYYADSVKDRFTISRDDSQSMLYLQMNNLKTEDTAMYYCVRGKDDGYRHYAMDYWGQGTSVTVSS VL: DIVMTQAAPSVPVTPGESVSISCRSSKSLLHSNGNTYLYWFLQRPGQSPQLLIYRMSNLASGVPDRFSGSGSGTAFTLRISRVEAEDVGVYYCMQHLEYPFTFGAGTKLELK"
  LogEC50: -0.692
- BINDER: "88-H1L3 (antibody, V domains shown, Humanized 88D2C6) VH: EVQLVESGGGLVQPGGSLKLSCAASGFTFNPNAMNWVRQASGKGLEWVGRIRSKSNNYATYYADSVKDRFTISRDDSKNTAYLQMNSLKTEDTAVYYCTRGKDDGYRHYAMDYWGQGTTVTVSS VL: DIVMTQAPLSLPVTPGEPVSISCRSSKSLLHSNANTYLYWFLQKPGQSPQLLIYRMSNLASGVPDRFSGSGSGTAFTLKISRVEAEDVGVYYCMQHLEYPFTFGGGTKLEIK"
  LogEC50: -0.58
- BINDER: "88-H3L3 (antibody, V domains shown, Humanized 88D2C6) VH: EVQLVESGGGLVQPGGSLKLSCAASGFTFNPNAMNWVRQASGKGLEWVARIRSKSNNYATYYADSVKDRFTISRDDSKNTLYLQMNNLKTEDTAVYYCVRGKDDGYRHYAMDYWGQGTTVTVSS VL: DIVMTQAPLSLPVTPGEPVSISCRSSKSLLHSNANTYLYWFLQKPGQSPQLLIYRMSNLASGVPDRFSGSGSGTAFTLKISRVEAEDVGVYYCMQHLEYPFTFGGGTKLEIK"
  LogEC50: -0.629
- BINDER: "88-H3L2 (antibody, V domains shown, Humanized 88D2C6) VH: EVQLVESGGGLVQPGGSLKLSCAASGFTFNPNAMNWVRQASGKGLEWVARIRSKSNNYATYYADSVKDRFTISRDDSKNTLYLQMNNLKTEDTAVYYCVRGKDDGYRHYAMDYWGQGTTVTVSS VL: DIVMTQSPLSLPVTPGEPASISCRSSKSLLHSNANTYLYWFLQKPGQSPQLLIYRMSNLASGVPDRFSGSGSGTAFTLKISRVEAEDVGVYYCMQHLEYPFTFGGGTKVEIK"
  LogEC50: -0.684

Data origin: patent US20220195057A1
